- Assay Name: Human HepG2 cell viability assay in 384 well format
- Type: toxicity, cell-based
- Set-up: dose 125 nL, time 70.5 hour; concentration not given beside the values
- Settings: HepG2 cells, read-out: Inhibition
Property Name: cytotoxicity at 70.5 h (%)
Please reply with the bare figure in % and do not write the unit itself.

Worked examples follow.
1. CC(C)c1nn(C)c(Cl)c1CNCc1ccc2c(c1)OCCO2 :: 3.82
2. COC(=O)c1ccccc1NC(=O)c1nc2ccccc2n(C)c1=O :: 32.8
3. NC(=O)N1CCCC(c2nc(-c3cccnn3)no2)C1 (configuration not stated) :: -5.18

Fill blank: measured cytotoxicity at 70.5 h of the compound CC(C)N1CCC(C(=O)N2CCN(c3cccc(C(=O)O)c3)CC2)CC1 is ____.
-9.74

Fill blank: measured cytotoxicity at 70.5 h of the compound Cc1nc(N(C)C)nc(NCCc2cnccn2)c1C is ____.
-1.68
